Each entry below carries its reported inhibition at 10 µM.
Target: 15-lipoxygenase (Glycine max, UniProt P08170)
Construct: 15-lipoxygenase obtained from soybean; from tissue; host or cells: soybean
Sequence (P08170 1-839): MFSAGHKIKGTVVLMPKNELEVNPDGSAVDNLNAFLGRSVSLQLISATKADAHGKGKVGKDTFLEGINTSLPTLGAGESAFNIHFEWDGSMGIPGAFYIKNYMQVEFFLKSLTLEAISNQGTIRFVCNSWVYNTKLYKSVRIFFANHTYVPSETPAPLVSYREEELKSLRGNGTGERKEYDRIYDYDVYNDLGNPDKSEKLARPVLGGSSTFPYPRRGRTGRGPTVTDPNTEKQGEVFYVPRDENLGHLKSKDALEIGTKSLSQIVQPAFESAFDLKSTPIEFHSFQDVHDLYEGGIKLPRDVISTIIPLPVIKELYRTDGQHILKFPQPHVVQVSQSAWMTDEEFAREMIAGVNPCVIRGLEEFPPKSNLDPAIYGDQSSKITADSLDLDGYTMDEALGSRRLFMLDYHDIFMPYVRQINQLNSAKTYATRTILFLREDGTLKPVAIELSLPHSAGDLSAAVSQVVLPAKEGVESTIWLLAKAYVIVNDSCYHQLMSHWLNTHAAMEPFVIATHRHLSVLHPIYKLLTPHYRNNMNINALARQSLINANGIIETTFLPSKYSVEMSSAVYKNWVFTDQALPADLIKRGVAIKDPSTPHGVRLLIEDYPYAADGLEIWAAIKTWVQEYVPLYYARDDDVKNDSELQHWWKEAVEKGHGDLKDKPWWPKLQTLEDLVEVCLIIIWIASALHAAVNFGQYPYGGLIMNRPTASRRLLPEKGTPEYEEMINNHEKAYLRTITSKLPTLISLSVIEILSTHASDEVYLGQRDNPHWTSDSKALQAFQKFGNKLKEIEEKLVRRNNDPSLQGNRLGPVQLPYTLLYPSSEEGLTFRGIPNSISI
Experiment: 15-lipoxygenase inhibition (15-lipoxygenase obtained from soybean)
Assay type: biochemical
Conditions: read-out: % Inhibition at Indicated Concentration, 15-lipoxygenase, 10 uM
REPORTED PROPERTY: inhibition at 10 µM (%)

INSERT INTO assay_data (molecule, reported_property, recorded_result) VALUES
  ('O=C(NO)c1ccc(-c2ccccc2)cc1 [Example 7, 4-biphenyl hydroxamic acid]', 'inhibition at 10 µM', 0),
  ('O=C(NO)c1ccc2ccc3ccccc3c2c1 [Example 13, 3-Phenanthryl hydroxamic acid]', 'inhibition at 10 µM', 25),
  ('CN(O)C(=O)C=Cc1cccc(-c2ccccc2)c1 [Example 2]', 'inhibition at 10 µM', 43),
  ('O=C(NO)c1cccc(-c2ccccc2)c1 [Example 8, 3-biphenyl hydroxamic acid]', 'inhibition at 10 µM', 33),
  ('CN(O)C(=O)C=Cc1ccc(-c2ccccc2)cc1 [Example 1]', 'inhibition at 10 µM', 52);
